The origin of these recorded values is patent US20090286790A1.

Biological target: CETP (Homo sapiens, UniProt P11597)
Construct: Human plasma (50 uL), assay buffer (35 uL) and test compound; tissue New Drug Development Research Center, Inc
Sequence (P11597 18-493): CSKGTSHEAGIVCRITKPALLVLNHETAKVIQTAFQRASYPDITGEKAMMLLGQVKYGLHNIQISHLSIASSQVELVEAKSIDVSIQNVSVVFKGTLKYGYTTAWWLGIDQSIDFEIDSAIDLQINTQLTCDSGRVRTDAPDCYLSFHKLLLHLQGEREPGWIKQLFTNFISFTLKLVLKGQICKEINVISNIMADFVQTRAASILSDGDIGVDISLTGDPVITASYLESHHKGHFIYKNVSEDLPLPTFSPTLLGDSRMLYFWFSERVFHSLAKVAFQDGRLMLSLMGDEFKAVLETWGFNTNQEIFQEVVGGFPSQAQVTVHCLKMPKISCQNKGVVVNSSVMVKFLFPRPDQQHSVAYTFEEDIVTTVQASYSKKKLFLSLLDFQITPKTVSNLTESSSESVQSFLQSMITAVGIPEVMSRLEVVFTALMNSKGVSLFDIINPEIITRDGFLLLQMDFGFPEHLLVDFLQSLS
Experiment: In vitro CETP activity assay in human plasma
Settings: Table 1 Inhibitory Activity of Compounds
Experimental Endpoint: IC50 (nM)
The reply should contain only the number, in nM.

>>> numeric_result("CC[C@@H]1C[C@H](N(Cc2cc(C(F)(F)F)cc(C(F)(F)F)c2)c2ncc(Br)cn2)C[C@H](Cc2ccccc2)N1C(=O)[C@H]1CC[C@@H](O)CC1 (relative stereo) [Example 18]")
357

[in] What does the data say about its IC50? Entry: CC[C@@H]1C[C@H](N(Cc2cc(C(F)(F)F)cc(C(F)(F)F)c2)c2ncc(Br)cn2)C[C@H](Cc2ccccc2)N1C(=O)[C@H]1CC[C@@H](OC(C)=O)CC1 (relative stereo) [Example 17]
[out] 314
